- assayed system: T1, IL-17C (UniProt Q9P0M4 19-197, limits assumed)
- T1 sequence (looked up): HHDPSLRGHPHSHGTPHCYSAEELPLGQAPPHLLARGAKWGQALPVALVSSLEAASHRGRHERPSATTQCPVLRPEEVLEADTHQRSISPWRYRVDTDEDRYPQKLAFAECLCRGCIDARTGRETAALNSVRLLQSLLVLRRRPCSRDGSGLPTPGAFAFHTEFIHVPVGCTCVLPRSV
- method: specificity ELISA on coated antigen, VH concentration not given
readout type: binding result

Study these solved cases before continuing.
VH 1.3.1 (clone 1.3 expressed from phagemid vector: with linker residues and His tag) (VHH, Human single VH domain; also called Clone 1.3 prep 1; Clone 1.3 prep 2) VHH: EVQLVESGGGLVQPGGSLRLSCAASGFTFSSYSMYWVRQAPGKGLEWVAEIKQDGSVQYYVDSVKGRFTISRDNAKNSLYLQMNSLRAEDTAVYYCAKGEILPLYFDYWGQGTLVTVSS    no binding
VH 1.16.1 (clone 1.16 expressed from phagemid vector: with linker residues and His tag) (VHH, Human single VH domain) VHH: EVQLVESGGGLVQPGGSLRLSCAASGFTFSSYSMYWVRQAPGKGLEWVAEIKQDGSEQYYVDSVKGRFTISRDNAKNSLYLQMNGLRAEDTAVYYCAKGEILPLYFDYWGQGTLVTVSS    no binding
VH 1.20.1 (clone 1.20 expressed from phagemid vector: with linker residues and His tag) (VHH, Human single VH domain) VHH: EVQLVESGGGLVQPGGSLRLSCAASGFTFSSYGMYWVRQAPGKGLEWVAKIEQDGSEEYYADSVKGRFTISRDNAKKSLYLQMNSLRAEDTAVYYCAKGEILPLYFDYWGQGTLVTVSS    no binding
VH 1.10.1 (clone 1.10 expressed from phagemid vector: with linker residues and His tag) (VHH, Human single VH domain) VHH: EVQLVESGGGLVQPGGSLRLSCAASGFTFSSYRMYWVRQAPGKGLEWVASIEQDGSEEYYVDSVKGRFTISRDNAKKSLFLQMNSLRAEDTAVYYCAKGEILPLYFDYWGQGTLVTVSS    no binding
Clone 1.15 (VHH, Human single VH domain) VHH: EVQLVESGGGLVQPGGSLRLSCAASGFTFSSYSMYWVRQAPGKGLEWVAEIRQDGSEQYYVDSVKGRFTISRDNAKNSLYLQMNSLRAEDTAVYYCAKGEILPLYFDYWGQGTLVTVSS    no binding

Moving on to another binder below.
Asked: Any idea what binding result was measured for VH 1.19.1 (clone 1.19 expressed from phagemid vector: with linker residues and His tag) (VHH, Human single VH domain) VHH: EVQLVESGGGLVQPGGSLRLSCATSGFTFSSYGMYWVRQAPGKGLEWVAEIKQDGSEKYYVDSVKGRFTISRDNAKNSLYLQMNSLRAEDTAVYYCAKGEILPLYFDYWGQGTLVTVSS ?
Given back: no binding
